Please go through the items and note down their Z.CTG (standard z score).
Tested on: ISC-enriched organoids
Assay text: Primary screen, 384-well 2.5-D organoid differentiation (ENR+CD, 6 days, Target Selective Inhibitor Library, vs whole-plate median): ATP (CellTiter-Glo 3D, CTG)
Condition notes: Dose 10.00 uM; primary screen
Where a name gives a salt, the structure may show the parent alone.
Simply state the number, no unit and no words.

Just so you know, measured Z.CTG (standard z score) for CCn1c(N)c(C(=O)NC)c(=O)c2ccc(C#C[C@@](C)(O)COC)nc21 [SAR131675] came out at 0.149

For reference, reported Z.CTG (standard z score) for Cc1cn([C@H]2C=C[C@@H](CO)O2)c(=O)[nH]c1=O [Stavudine (d4T)] stands at −0.179

Lab note: CCC(=O)NCC[C@@H]1CCc2ccc3c(c21)CCO3 [Ramelteon] gave Z.CTG (standard z score) of 0.358

Z.CTG (standard z score) measured on CC(=O)OCC(=O)NCCCOc1cccc(CN2CCCCC2)c1 [Roxatidine Acetate HCl] = −0.564

Notebook: COc1cc(Br)c(Nc2nc(-c3c(C)nc4ncccn34)cs2)c(Br)c1 [PTC-209] , Z.CTG (standard z score) read as −3.708

compound CN[C@H]1CC[C@@H](c2ccc(Cl)c(Cl)c2)c2ccccc21 [Sertraline HCl] , Z.CTG (standard z score) observed: 0.104

Query COc1cc(OC)c(/C=C/S(=O)(=O)Cc2ccc(OC)c(NCC(=O)O)c2)c(OC)c1 [Rigosertib (ON-01910)] yields Z.CTG (standard z score) of −2.022

Looking up O=C1NC(=O)C(c2ccccc2[N+](=O)[O-])=C1Nc1ccc(O)c(Cl)c1 [SB415286] , I see its Z.CTG (standard z score) listed as 0.293

Per the record, Cc1ccc(C(=O)N(CCCN)[C@@H](c2oc3cc(Cl)ccc3c(=O)c2Cc2ccccc2)C(C)C)cc1 [SB743921] has Z.CTG (standard z score) of −1.294
